Test system: PEO4 cells
Test summary: cell proliferation assay, PEO4 cells
Assay type: cell-based
Experimental parameters: PEO4 cells, 5 days
Excerpt: FIG. 63 is a line graph showing the proliferation of PEO1 and PEO4 cells treated with increasing concentrations of cisplatin for 5 days. Data are represented as mean±SD from three independent experiments performed in triplicate. Indicated IC50 values represent the mean of […] independent experiments performed in triplicate. FIG. 64 is a bar graph showing the synergistic effects of LY2784544 and cisplatin in PEO4 cells. CI values are presented above the bars. […]
Parameter: IC50 (µM)
A number alone suffices; assume µM.

[in] Please list IC50 recorded for the compound N.N.[Cl][Pt][Cl] [cisplatin]
[out] 1.99
